Each entry below carries its recorded activity.
# Tested System: T1, GFP1 Right TALEN NT-G (synthetic construct)
# T1 chain: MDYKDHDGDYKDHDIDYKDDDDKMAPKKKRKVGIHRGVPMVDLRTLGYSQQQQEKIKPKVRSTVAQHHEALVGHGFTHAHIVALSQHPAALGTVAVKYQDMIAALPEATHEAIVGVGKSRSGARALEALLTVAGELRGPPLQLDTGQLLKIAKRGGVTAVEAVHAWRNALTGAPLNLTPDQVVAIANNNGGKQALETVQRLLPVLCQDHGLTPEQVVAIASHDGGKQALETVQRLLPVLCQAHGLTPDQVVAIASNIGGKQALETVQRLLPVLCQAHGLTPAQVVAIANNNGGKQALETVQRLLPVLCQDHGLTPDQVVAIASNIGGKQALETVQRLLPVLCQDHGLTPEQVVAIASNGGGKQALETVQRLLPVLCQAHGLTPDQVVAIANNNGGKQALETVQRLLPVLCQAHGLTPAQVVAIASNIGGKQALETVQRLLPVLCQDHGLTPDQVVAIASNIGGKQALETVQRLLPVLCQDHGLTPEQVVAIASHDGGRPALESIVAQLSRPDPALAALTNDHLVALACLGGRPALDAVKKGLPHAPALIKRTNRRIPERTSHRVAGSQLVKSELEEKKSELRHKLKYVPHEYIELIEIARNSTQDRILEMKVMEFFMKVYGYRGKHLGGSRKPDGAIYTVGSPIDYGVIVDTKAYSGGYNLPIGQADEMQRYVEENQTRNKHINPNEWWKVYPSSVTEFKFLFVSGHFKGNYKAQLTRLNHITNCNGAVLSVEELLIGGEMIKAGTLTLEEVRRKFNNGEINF
# Procedure Summary: cell_activity; SSA
# Condition Set: tags: 3xFlag, SV40 NLS, FokI fusion; chain copies: 2
The answer is to be given in RLU; state only the numeric part.

Example entries and their recorded answers appear below.
Binder: GFP1 R SSA site 5'G (dsDNA) DNA 1: GGGGCAGATGAACGCAAGCTGACCCTGAAGTTCATCTGCCTT DNA 2: AAGGCAGATGAACTTCAGGGTCAGCTTGCGTTCATCTGCCCC
Observation Type: activity
Value Observed: 1.07e+06
--
Binder: GFP1 R SSA site 5'A (dsDNA) DNA 1: GGAGCAGATGAACGCAAGCTGACCCTGAAGTTCATCTGCTTT DNA 2: AAAGCAGATGAACTTCAGGGTCAGCTTGCGTTCATCTGCTCC
Observation Type: activity
Value Observed: 1.14e+06
--
Binder: GFP1 R SSA site 5'C (dsDNA) DNA 1: GGCGCAGATGAACGCAAGCTGACCCTGAAGTTCATCTGCGTT DNA 2: AACGCAGATGAACTTCAGGGTCAGCTTGCGTTCATCTGCGCC
Observation Type: activity
Value Observed: 693000

Next, consider the following binder.
# query: activity of entry GFP1 R+R SSA site (dsDNA) DNA 1: GGTGCAGATGAACGCAAGCTGACCCTGAAGTTCATCTGCATT DNA 2: AATGCAGATGAACTTCAGGGTCAGCTTGCGTTCATCTGCACC 1.21e+06
